Below is a list of entries, each paired with its recorded melting point value.

Recorded results for 9 molecules are shown here.
# molecule, melting point
records = [
    ("C#CCOC(C(=O)O)c1ccc(Cl)cc1 (stereo not given)", "69 to 70 °C"),
    ("Cn1cccc1-c1nsc2ccc(-n3c(=O)cc(C(F)(F)F)[nH]c3=O)cc12", "125 to 130 °C"),
    ("COc1cc(C(=O)NS(=O)(=O)c2ccccc2Cl)ccc1Cc1c(Cl)n(C)c2ccc(CCNC(=O)N(C)C)cc12", "204 to 206 °C"),
    ("Nc1ccc2c(c1)NC(=O)c1cscc1N2", "212 to 215 °C"),
    ("O=C(Nc1cccc(Cc2nnn[nH]2)c1)C(F)(F)C(F)(F)C(F)(F)C(F)(F)C(F)(F)C(F)(F)C(F)(F)F", "163 to 166 °C"),
    ("CC1CN=C2C=CC(c3cccnc3)=NN21 (stereo not given)", "104 to 105 °C"),
    ("COc1ccc(NC(=O)NC2N=C(c3ccccc3)c3ccccc3N(C)C2=O)cc1 (stereo not given)", "261 to 263 °C"),
    ("COC(=O)Cn1c(C(=O)Nc2nc(-c3cc(OC)c(C)cc3OC)c(CCC3CCCCC3)s2)cc2cc(C)cc(C)c21", "154 to 162 °C"),
    ("O=Cc1c(Cl)ccc(C(=O)O)c1Cl", "188 to 190 °C"),
]

// query melting point value for entry Nc1cc(NC(=O)c2cc3cc(F)ccc3n2Cc2cccc(F)c2)ccn1
217 to 218 °C
